B1: CPEB3 Ribozyme (parent)
chain: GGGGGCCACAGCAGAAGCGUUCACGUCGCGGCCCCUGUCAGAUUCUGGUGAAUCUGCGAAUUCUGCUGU

Variants of: B1
Assay: self-cleavage, relative activity (ratio to wild type); higher = more cleavage; co-transcriptional
observable: self-cleavage

INSERT INTO results (mut, observable, measured_number) VALUES
  ('U36A C45G', 'self-cleavage', 0.282),
  ('G17A U38G', 'self-cleavage', 0.11),
  ('A15U U69G', 'self-cleavage', 0.998),
  ('G37C A40G', 'self-cleavage', 0.181),
  ('C24G G68U', 'self-cleavage', 0.699),
  ('G2A C45G', 'self-cleavage', 0.217),
  ('G41U U46G', 'self-cleavage', 0.887),
  ('C6A G30A', 'self-cleavage', 0.338),
  ('C39U G58U', 'self-cleavage', 0.961),
  ('C39U A40C', 'self-cleavage', 0.756),
  ('G2A C57A', 'self-cleavage', 0.0762);
